- target or test system: T1, human CD228 (R&D Systems Custom02; Lot DCWR021505A) (human, UniProt P08582 20-709, limits assumed)
- T1 construct: Bought custom protein coated on ELISA plates; also called CD228 protein; melanotransferrin
- T1 sequence (looked up): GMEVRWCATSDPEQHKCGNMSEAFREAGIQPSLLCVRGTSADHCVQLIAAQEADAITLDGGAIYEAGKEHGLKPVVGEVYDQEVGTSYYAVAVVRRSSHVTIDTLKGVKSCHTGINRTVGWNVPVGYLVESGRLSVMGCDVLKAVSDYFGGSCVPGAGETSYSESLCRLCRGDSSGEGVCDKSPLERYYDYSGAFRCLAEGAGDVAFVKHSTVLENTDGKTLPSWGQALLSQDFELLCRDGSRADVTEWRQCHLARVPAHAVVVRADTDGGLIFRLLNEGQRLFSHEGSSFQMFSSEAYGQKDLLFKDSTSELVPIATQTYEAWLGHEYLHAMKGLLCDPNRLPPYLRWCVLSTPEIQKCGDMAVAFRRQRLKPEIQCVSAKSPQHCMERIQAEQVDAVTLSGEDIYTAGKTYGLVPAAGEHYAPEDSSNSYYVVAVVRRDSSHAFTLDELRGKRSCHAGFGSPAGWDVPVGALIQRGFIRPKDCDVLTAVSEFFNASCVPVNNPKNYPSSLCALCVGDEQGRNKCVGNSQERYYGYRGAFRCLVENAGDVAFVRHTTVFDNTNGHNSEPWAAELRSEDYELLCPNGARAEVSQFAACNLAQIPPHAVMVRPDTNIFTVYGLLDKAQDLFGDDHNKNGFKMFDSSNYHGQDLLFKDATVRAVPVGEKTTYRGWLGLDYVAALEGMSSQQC
- assay method text: ELISA, coated human CD228, pH 7.40
pEC50: −log10 of the molar value.
readout name: pEC50

[[record]]
binder = "hL49_3X_Ala (antibody, V domains shown, hL49 triple mutant: all three light chain CDR histidines (two in CDR-L1, one in CDR-L3) changed to alanine) VH: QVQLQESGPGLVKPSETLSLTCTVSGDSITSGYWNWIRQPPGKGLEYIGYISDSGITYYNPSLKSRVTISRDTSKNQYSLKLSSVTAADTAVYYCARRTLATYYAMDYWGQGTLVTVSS VL: DFVMTQSPLSLPVTLGQPASISCRASQSLVASDGNTYLAWYQQRPGQSPRLLIYRVSNRFSGVPDRFSGSGSGTDFTLKISRVEAEDVGVYYCSQSTAVPPTFGQGTKLEIK"
readout_name = "pEC50"
reported_measurement = 8.35

[[record]]
binder = "hL49_27D_Gln (antibody, V domains shown, hL49 variant with the light chain CDR-L1 histidine 27D changed to glutamine) VH: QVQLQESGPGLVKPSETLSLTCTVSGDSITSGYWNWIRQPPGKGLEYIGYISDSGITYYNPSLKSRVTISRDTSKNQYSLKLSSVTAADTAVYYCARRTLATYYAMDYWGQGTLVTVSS VL: DFVMTQSPLSLPVTLGQPASISCRASQSLVQSDGNTYLHWYQQRPGQSPRLLIYRVSNRFSGVPDRFSGSGSGTDFTLKISRVEAEDVGVYYCSQSTHVPPTFGQGTKLEIK"
readout_name = "pEC50"
reported_measurement = 9.17

[[record]]
binder = "hL49_34_Ala (antibody, V domains shown, hL49 variant with the light chain CDR-L1 histidine 34 changed to alanine; also called hL49_H34A) VH: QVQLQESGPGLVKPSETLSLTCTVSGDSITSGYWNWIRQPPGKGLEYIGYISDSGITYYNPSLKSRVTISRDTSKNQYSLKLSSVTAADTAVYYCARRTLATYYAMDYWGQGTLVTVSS VL: DFVMTQSPLSLPVTLGQPASISCRASQSLVHSDGNTYLAWYQQRPGQSPRLLIYRVSNRFSGVPDRFSGSGSGTDFTLKISRVEAEDVGVYYCSQSTHVPPTFGQGTKLEIK"
readout_name = "pEC50"
reported_measurement = 8.92

